Reference for the values: patent US7501440B2

Molecular target: human glycogen phosphorylase a (Homo sapiens, UniProt P06737)
Sequence (P06737 1-847): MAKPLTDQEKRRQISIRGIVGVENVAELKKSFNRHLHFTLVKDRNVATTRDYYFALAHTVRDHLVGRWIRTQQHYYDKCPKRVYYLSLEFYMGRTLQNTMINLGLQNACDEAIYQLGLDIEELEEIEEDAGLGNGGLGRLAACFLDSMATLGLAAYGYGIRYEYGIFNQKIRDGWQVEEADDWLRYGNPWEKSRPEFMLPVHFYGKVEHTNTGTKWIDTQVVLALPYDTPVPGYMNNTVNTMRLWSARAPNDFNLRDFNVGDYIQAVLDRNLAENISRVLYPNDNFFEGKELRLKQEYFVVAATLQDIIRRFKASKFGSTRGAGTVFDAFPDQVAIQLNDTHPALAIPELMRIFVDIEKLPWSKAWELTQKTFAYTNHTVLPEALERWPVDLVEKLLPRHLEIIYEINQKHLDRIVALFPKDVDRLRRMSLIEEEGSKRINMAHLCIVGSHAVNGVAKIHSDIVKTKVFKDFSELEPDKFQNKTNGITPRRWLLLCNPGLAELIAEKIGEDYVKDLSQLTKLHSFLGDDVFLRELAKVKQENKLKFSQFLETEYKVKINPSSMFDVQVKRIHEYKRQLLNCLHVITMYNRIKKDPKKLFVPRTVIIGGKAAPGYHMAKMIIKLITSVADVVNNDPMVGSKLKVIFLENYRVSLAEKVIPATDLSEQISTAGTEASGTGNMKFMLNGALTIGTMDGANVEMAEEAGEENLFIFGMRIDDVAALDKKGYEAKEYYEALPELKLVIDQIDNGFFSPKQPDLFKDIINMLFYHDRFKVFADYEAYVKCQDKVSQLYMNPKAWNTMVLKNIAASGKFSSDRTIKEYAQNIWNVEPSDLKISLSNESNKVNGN
Experiment: Glycogen phosphorylase a activity test
Assay type: biochemical
Details: inhibition of GPa in vitro, reverse direction (glycogen synthesis from glucose 1-phosphate, release of inorganic phosphate)
quantity kind: IC50 (nM)

molecule | test target | unit text | IC50
O=C(NC(=O)c1cc(F)c(F)cc1Cl)Nc1cccnc1N1CCC(C(=O)O)CC1 [Example 2] | human glycogen phosphorylase a (Homo sapiens, UniProt P06737) | nM | 10

[a] NC(=O)C1CCN(c2ncccc2NC(=O)NC(=O)c2cc(F)c(F)cc2Cl)CC1 [Example 4]
[b] O=C(NC(=O)c1ccc(F)cc1Cl)Nc1cccnc1N1CCC(C(=O)O)CC1 [Example 1]
[c] O=C(NC(=O)c1cc(F)c(F)cc1Cl)Nc1cccnc1N1CCC(C(=O)NCCO)CC1 [Example 5]
Request: Arrange these 3 molecules in increasing order of IC50. Give me the labels in the order the question wants.
Result: b, a, c
